run description: NCI Yeast Anticancer Drug Screen. Data for the CLN2oe strain (AID 163);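 further: 0% = growth of vehicle-only control cultures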
measurement conditions: S. cerevisiae CLN2oe strain, at 1.2 µM, hits give high values
The panel holds about 79,000 compounds, 15% with a hit somewhere; the sample as a whole holds those more often. Calls of active or inactive are those of the source. No stated cut-off is given here; in the data, active means growth inhibition above about 70%; inactive means the rest.
value kind: growth inhibition

[
  {
    "compound structure": "O=[N+]([O-])c1c(/C=N/Nc2ccccc2)oc(-c2ccc3c(c2)OCO3)c1-c1ccc2c(c1)OCO2",
    "growth inhibition": "-1% (inactive)"
  },
  {
    "compound structure": "O=C(CNS(=O)(=O)Cc1ccccc1)NNc1ccccc1",
    "growth inhibition": "5% (inactive)"
  }
]

Now examine the next entry.
Input: # return recorded growth inhibition for entry `Clc1cc(-c2ccccc2)nc2ccccc12`
Output: 5% (inactive)

Values compiled from PubChem BioAssay (NCI).
